This listing pairs molecules with measured inhibition.
# Tested on: Tylonycteris bat coronavirus HKU4
# condition.info: at 100 µM
Just the number please, in %, no unit attached.

CC(C)(C)NC(=O)C(c1ccsc1)N(C(=O)c1ccc(C(F)(F)F)cn1)c1ccc(OCF)cc1 (stereo unspecified) : 18
O=C(Cn1nnc2ccccc21)N(Cc1ccsc1)c1ccc(-c2ccccc2)cc1 : 21

Entry CC(C)(C)NC(=O)C(c1cccnc1)N(C(=O)c1cccc(O)c1)c1ccc(C(C)(C)C)cc1 (stereo unspecified) — recorded inhibition = 10

Entry "O=C(Nc1ccc(N(Cc2ccsc2)C(=O)Cn2nnc3ccccc32)cc1)C1CCCCC1" — recorded inhibition = 88

This collection of values is drawn from ChEMBL document CHEMBL3603819.
